- Test system: Fibroblast
- measurement_protocol: Multiplex assay against human fibroblast
- Format: toxicity, cell-based
- condition_parameters: 48 h, 1 µM, compound concentration 1 uM, replicate 1
observation_type: Population Apoptotic (%)
Please respond with the number in % and leave the unit unwritten.

Checklist item: Population Apoptotic (%) tested on Fibroblast, entry CN1C[C@H](C(=O)N[C@]2(C)O[C@@]3(O)[C@@H]4CCCN4C(=O)[C@H](Cc4ccccc4)N3C2=O)C[C@@H]2c3cccc4[nH]cc(c34)C[C@H]21.CS(=O)(=O)O [DIHYDROERGOTAMINE MESYLATE] , value?
57

Checklist item: Population Apoptotic (%) tested on Fibroblast, entry `Cn1cc(C(=O)OCC2CCN(CCNS(C)(=O)=O)CC2)c2ccccc21` , value?
54

Checklist item: Population Apoptotic (%) tested on Fibroblast, entry CN(C)C/C=C/C(=O)Nc1ccc(C(=O)N2CCCC(Nc3ncc(Cl)c(-c4c[nH]c5ccccc45)n3)C2)cc1 (centres undefined) , value?
63

Checklist item: Population Apoptotic (%) tested on Fibroblast, entry `CN1CCN(c2ccc(Nc3c4ccccc4nc4ccccc34)cc2)CC1.Cl.Cl.O` , value?
66

----------
- System: U2OS
- measurement_protocol: Multiplex assay against U2OS
- Assay type: toxicity, cell-based
- condition_parameters: human, 24 h, 10 µM, compound concentration 10 uM, replicate 1
Provide the reported Population Hoechst High Intensity Objects (%) of each item.
Please respond with the number in % and leave the unit unwritten.

Entry Cl.Cl.OCCOCCN1CCN(C(c2ccccc2)c2ccc(Cl)cc2)CC1 (configuration not stated) [HYDROXYZINE HYDROCHLORIDE] : reported Population Hoechst High Intensity Objects (%) = ?
2

Entry Cc1ccc(OCC(O)C(C)NC(C)C)c2c1CCC2.Cl (configuration not stated) : reported Population Hoechst High Intensity Objects (%) = ?
3

Entry `O=C(Nc1cc(-c2ccccc2)nn1-c1ccccc1F)c1ccc([N+](=O)[O-])cc1` : reported Population Hoechst High Intensity Objects (%) = ?
1

Entry CN1C[C@H](C(=O)N[C@]2(C)O[C@@]3(O)[C@@H]4CCCN4C(=O)[C@H](Cc4ccccc4)N3C2=O)C[C@@H]2c3cccc4[nH]cc(c34)C[C@H]21.CS(=O)(=O)O [DIHYDROERGOTAMINE MESYLATE] : reported Population Hoechst High Intensity Objects (%) = ?
1

Entry `Cn1cc(C(=O)OCC2CCN(CCNS(C)(=O)=O)CC2)c2ccccc21` : reported Population Hoechst High Intensity Objects (%) = ?
2

Entry Nc1nc(CC(=O)Nc2ccc(CCNC[C@H](O)c3ccccc3)cc2)cs1 [MIRABEGRON] : reported Population Hoechst High Intensity Objects (%) = ?
1

Entry `COCCn1c(C)c(C)s/c1=N\C(=O)C1C(C)(C)C1(C)C` : reported Population Hoechst High Intensity Objects (%) = ?
1

Entry CCCCC[C@H](O)/C=C/[C@H]1[C@H](O)CC(=O)[C@@H]1CCCCCCC(=O)O [ALPROSTADIL] : reported Population Hoechst High Intensity Objects (%) = ?
1

Entry CN(C)C/C=C/C(=O)Nc1ccc(C(=O)N2CCCC(Nc3ncc(Cl)c(-c4c[nH]c5ccccc45)n3)C2)cc1 (configuration not stated) : reported Population Hoechst High Intensity Objects (%) = ?
9

Entry `Cc1nn(C)c2nc(NNC(=O)Nc3cc(Cl)nc(Cl)c3)cc(C(C)C)c12` : reported Population Hoechst High Intensity Objects (%) = ?
5

Entry `COc1cc(C(=O)N2CC[C@@H](O)[C@@H](N)C2)cc2nc(-c3cc4ccccc4n3CC3CC3)n(C)c12.Cl` : reported Population Hoechst High Intensity Objects (%) = ?
4

Entry CCCCCCNC(=O)Nc1ccc(S(=O)(=O)Nc2ccc(CCNC[C@H](O)COc3ccc(O)cc3)cc2)cc1 [L-755507] : reported Population Hoechst High Intensity Objects (%) = ?
2

Entry COc1cc2nc(N3CCN(C(=O)c4ccco4)CC3)nc(N)c2cc1OC.Cl [PRAZOSIN HYDROCHLORIDE] : reported Population Hoechst High Intensity Objects (%) = ?
2

Entry `CN1CCC(C(=O)c2cccc(NC(=O)c3c(F)cc(F)cc3F)n2)CC1` : reported Population Hoechst High Intensity Objects (%) = ?
2

Entry COc1cc(Nc2ncc3c(n2)-c2ccc(Cl)cc2C(c2c(F)cccc2OC)=NC3)ccc1C(=O)O [ALISERTIB] : reported Population Hoechst High Intensity Objects (%) = ?
4

Entry O=c1nc2[nH]c3ccccc3nc-2c(=O)[nH]1 [ALLOXAZINE] : reported Population Hoechst High Intensity Objects (%) = ?
0

Entry CCn1c(-c2nc3cc(C(=O)N4CCCC(N)C4)ccc3n2C)cc2ccccc21.Cl (configuration not stated) : reported Population Hoechst High Intensity Objects (%) = ?
2

----------
- Test system: U2OS
- measurement_protocol: Multiplex assay against U2OS
- Type: toxicity, cell-based
- condition_parameters: human, 24 h, 1 µM, compound concentration 1 uM, replicate 2
observation_type: Population Hoechst High Intensity Objects (%)
Please respond with the number in % and leave the unit unwritten.

Entry CCC(=O)OCC(=O)[C@@]1(OC(=O)CC)[C@@H](C)C[C@H]2[C@@H]3CCC4=CC(=O)C=C[C@]4(C)[C@@]3(Cl)[C@@H](O)C[C@@]21C [BECLOMETHASONE DIPROPIONATE] : reported Population Hoechst High Intensity Objects (%) = ?
0

Entry `Cc1cc(-c2ccc3c(c2)CC[C@H]3N2CC3(CCN(C(=O)Cc4cn5cc(C)sc5n4)CC3)C2)ncn1` : reported Population Hoechst High Intensity Objects (%) = ?
0

Entry CCn1c(-c2nc3cc(C(=O)N4CCCC(N)C4)ccc3n2C)cc2ccccc21.Cl (configuration not stated) : reported Population Hoechst High Intensity Objects (%) = ?
3

Entry `Nc1nc(-c2ccco2)c2cnn(Cc3ccccc3F)c2n1` : reported Population Hoechst High Intensity Objects (%) = ?
4

Entry Cc1ccc(OCC(O)C(C)NC(C)C)c2c1CCC2.Cl (configuration not stated) : reported Population Hoechst High Intensity Objects (%) = ?
1

Entry `CC(C)(C)c1ccc(CSc2cnn(C(C)(C)C)c(=O)c2Cl)cc1` : reported Population Hoechst High Intensity Objects (%) = ?
2

Entry COc1cc2nc(N3CCN(C(=O)c4ccco4)CC3)nc(N)c2cc1OC.Cl [PRAZOSIN HYDROCHLORIDE] : reported Population Hoechst High Intensity Objects (%) = ?
0

Entry COCCCN1CCC(NC(=O)c2cc(Cl)c(N)c3c2OCC3)CC1 [PRUCALOPRIDE] : reported Population Hoechst High Intensity Objects (%) = ?
1

Entry O=C(NCCNCC(O)COc1ccc(O)cc1)N1CCOCC1.O=C(NCCNCC(O)COc1ccc(O)cc1)N1CCOCC1.O=C(O)/C=C/C(=O)O (configuration not stated) [XAMOTEROL FUMARATE] : reported Population Hoechst High Intensity Objects (%) = ?
1

Entry CN(C)C/C=C/C(=O)Nc1ccc(C(=O)N2CCCC(Nc3ncc(Cl)c(-c4c[nH]c5ccccc45)n3)C2)cc1 (configuration not stated) : reported Population Hoechst High Intensity Objects (%) = ?
0

Entry `S=C(NCCCc1c[nH]cn1)NCCCN(Cc1ccc(Cl)c(Cl)c1)c1ccc(Br)cn1` : reported Population Hoechst High Intensity Objects (%) = ?
1

Entry `CC(C)C[C@H](CO)Nc1nc(S[C@@H](C)c2ccccc2)nc2nc(N)sc12` : reported Population Hoechst High Intensity Objects (%) = ?
0

Entry O=C(O)CCC/C=C\CC1C(O)CC(O)C1/C=C/C(O)COc1cccc(Cl)c1 (configuration not stated) : reported Population Hoechst High Intensity Objects (%) = ?
0

Entry `CN1CCC(C(=O)c2cccc(NC(=O)c3c(F)cc(F)cc3F)n2)CC1` : reported Population Hoechst High Intensity Objects (%) = ?
0

Entry `Cn1cc(C(=O)OCC2CCN(CCNS(C)(=O)=O)CC2)c2ccccc21` : reported Population Hoechst High Intensity Objects (%) = ?
0

Entry `Cc1cc(=O)n(C)c2cc(N3C(=O)CC[C@H](NS(=O)(=O)CC(C)C)[C@H]3c3ccc(Cl)cc3)ccc12` : reported Population Hoechst High Intensity Objects (%) = ?
1

Entry `Cc1nn(C)c2nc(NNC(=O)Nc3cc(Cl)nc(Cl)c3)cc(C(C)C)c12` : reported Population Hoechst High Intensity Objects (%) = ?
2

----------
- Test system: U2OS
- measurement_protocol: Multiplex assay against U2OS
- Type: toxicity, cell-based
- condition_parameters: human, 12 h, 10 µM, compound concentration 10 uM, replicate 1
Provide the reported Population Pyknosed Nuclei (%) of each item.
Please respond with the number in % and leave the unit unwritten.

Checklist item: Population Pyknosed Nuclei (%) tested on U2OS, entry `C[C@@H]1CC(=O)Nc2cccc(-c3ccc4c(c3)c(-c3cnn(C)c3)nn4C)c2N1` , value?
12

Checklist item: Population Pyknosed Nuclei (%) tested on U2OS, entry COc1ccc2c(c1OCc1ccccc1)C[C@@H](C(=O)O)N(C(=O)C(c1ccccc1)c1ccccc1)C2 [OLODANRIGAN] , value?
5

Checklist item: Population Pyknosed Nuclei (%) tested on U2OS, entry O=c1ccc2ccc(OCCCCN3CCN(c4cccc5sccc45)CC3)cc2[nH]1 [BREXPIPRAZOLE] , value?
41

Checklist item: Population Pyknosed Nuclei (%) tested on U2OS, entry CN(C)C/C=C/C(=O)Nc1ccc(C(=O)N2CCCC(Nc3ncc(Cl)c(-c4c[nH]c5ccccc45)n3)C2)cc1 (configuration not stated) , value?
20

Checklist item: Population Pyknosed Nuclei (%) tested on U2OS, entry `Cc1cc(O)c(-c2ccc([C@@H](C)CN(C)C)cc2)c2c1[nH]c(=O)c1sccc12` , value?
21

Checklist item: Population Pyknosed Nuclei (%) tested on U2OS, entry `CCc1nn2c(C)cc(C)nc2c1Cc1ccc(-c2nnc(C3CCNCC3)o2)cc1` , value?
20

Checklist item: Population Pyknosed Nuclei (%) tested on U2OS, entry CN1C[C@H](C(=O)N[C@]2(C)O[C@@]3(O)[C@@H]4CCCN4C(=O)[C@H](Cc4ccccc4)N3C2=O)C[C@@H]2c3cccc4[nH]cc(c34)C[C@H]21.CS(=O)(=O)O [DIHYDROERGOTAMINE MESYLATE] , value?
7

Hello, the source for this data is ChEMBL document CHEMBL5058577, in case you need it.
